Tested on: plasma
Assay: Plasma lipoperoxidation inhibitory effect (copper sulfate, malondialdehyde by thiobarbituric acid method)
Assay type: biochemical, rabbit
Conditions: concentration 10^-5M; 37°C, 3 hours; malondialdehyde production inhibitory ratio
Rule: Result of Exp. Ex. 4: plasma lipoperoxidation inhibition under 90% gives f, otherwise t.

>  <molecule>
CCCCCCN1CCc2c(C)cc(C)c(NC(=O)C(C)(C)CCCC)c21 [Example 14]

>  <system.under.test>
plasma

>  <category>
t

$$$$
>  <molecule>
CCCCC(C)(C)C(=O)Nc1c(C)cc(C)c2c1N(CC)CC2 [Example 6]

>  <system.under.test>
plasma

>  <category>
f

$$$$
>  <molecule>
CCCCCCC(C)(C)C(=O)Nc1c(C)cc(C)c2c1N(CCCC)CC2 [Example 10]

>  <system.under.test>
plasma

>  <category>
f

$$$$
>  <molecule>
CCCCN1CCc2c(C)cc(C)c(NC(=O)C(C)(C)CCCC)c21 [Example 9]

>  <system.under.test>
plasma

>  <category>
f

$$$$

Values were extracted from patent US6489475B2.
